- targetOrSystem: Histamine H2 receptor (Cavia porcellus)
- assayRemarks: Antagonist activity at guinea pig histamine H2 receptor assessed as reduction of histamine-induced maximal response after 30 mins
measuredProperty: pD'2

| compound | resultOperator | readoutValue |
| --- | --- | --- |
| CC(CC(=O)/N=C(\N)NCCCc1cccnc1)c1ccccc1 (stereo not given) | = | 4.22 |
| CC(CC(=O)/N=C(\N)NCCCc1ccncc1)c1ccccc1 (stereo not given) | = | 4.54 |
| Cc1nc(N)sc1CCCNC(=N)NC(=O)CC(C)c1ccccc1 (stereo not given) | < | 4.5 |
| CC(CC(=O)/N=C(\N)NCCCc1ncc[nH]1)c1ccccc1 (stereo not given) | = | 4.44 |
| CC(CC(=O)/N=C(\N)NCCCn1ccnc1)c1ccccc1 (stereo not given) | = | 4.16 |

###

- targetOrSystem: Histamine H4 receptor (Homo sapiens, UniProt Q9H3N8)
- Sequence (Q9H3N8 whole entry, the tested form may be a part): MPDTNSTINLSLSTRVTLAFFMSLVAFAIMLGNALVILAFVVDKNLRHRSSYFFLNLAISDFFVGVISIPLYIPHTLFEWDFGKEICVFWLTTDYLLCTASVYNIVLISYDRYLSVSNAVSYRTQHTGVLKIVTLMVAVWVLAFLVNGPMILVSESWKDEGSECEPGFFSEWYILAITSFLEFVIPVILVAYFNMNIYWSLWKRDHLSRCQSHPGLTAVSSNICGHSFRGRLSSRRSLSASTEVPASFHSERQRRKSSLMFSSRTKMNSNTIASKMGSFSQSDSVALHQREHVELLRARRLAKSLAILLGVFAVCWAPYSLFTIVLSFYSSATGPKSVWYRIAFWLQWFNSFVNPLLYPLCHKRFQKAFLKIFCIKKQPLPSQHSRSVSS
- assayRemarks: Intrinsic activity at human recombinant histamine H4 receptor-RGS19 fusion protein expressed in Sf9 cells coexpressing Galphai2,Gbeta1gamma2 assessed as [35S]GTPgammaS binding at 10 uM after 90 mins by liquid scintillation counting relative to histamine
- Assay type: functional
Listed below: Intrinsic activity values for each entry.

| sampleSmiles | Intrinsic activity |
| --- | --- |
| N#C/N=C(\NCCNc1ccnc(N)n1)NCCSc1ccccc1 | -0.83 |
| N#C/N=C(/NCCCCNc1ccccn1)NCCSc1ccccc1 | -0.34 |
| Cc1nc(CCCCN/C(=N\C#N)NCCSc2ccccc2)c[nH]1 | -0.24 |
| CN/C(=N/C#N)NCCCCCn1ccnc1C | 0.06 |
| Cc1nc(CCCN/C(=N\C#N)NCCSc2ccccc2)c[nH]1 | 0.4 |
| Cc1[nH]cnc1CCCCN/C(=N\C#N)NCCSc1ccccc1 | 0.37 |
| Cc1nccn1CCCCCN/C(=N\C#N)NCCSc1ccccc1 | -0.05 |
| N#C/N=C(/NCCCNc1ccccn1)NCCSc1ccccc1 | -0.1 |
| CN/C(=N/C#N)NCCCc1c[nH]c(C)n1 | 0.74 |

###

- targetOrSystem: Histamine H2 receptor (Cavia porcellus, UniProt P47747)
- Sequence (P47747 whole entry): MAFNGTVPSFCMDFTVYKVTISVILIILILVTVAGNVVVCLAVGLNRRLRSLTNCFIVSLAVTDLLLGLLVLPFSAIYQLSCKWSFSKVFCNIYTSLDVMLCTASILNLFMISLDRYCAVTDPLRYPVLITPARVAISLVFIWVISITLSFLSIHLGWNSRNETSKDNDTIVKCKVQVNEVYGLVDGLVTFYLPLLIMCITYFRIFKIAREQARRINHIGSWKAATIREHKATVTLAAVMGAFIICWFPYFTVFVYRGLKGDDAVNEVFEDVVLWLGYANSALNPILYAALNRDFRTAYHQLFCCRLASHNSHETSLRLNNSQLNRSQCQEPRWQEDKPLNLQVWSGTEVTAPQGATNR
- assayRemarks: Agonist activity at guinea pig atrium histamine H2 receptor assessed as potentiation of histamine-induced response after 30 mins
- Parameters: species or system Cardiac atrium
pEC50: −log10 of the molar value.
# maps each entry to its pEC50

| compound | pEC50 |
| --- | --- |
| N/C(=N\C(=O)CC(c1ccccc1)c1ccccc1)NCCCc1ncn[nH]1 | 6.69 |
| CC(CC(=O)/N=C(\N)NCCCc1cn[nH]c1)c1ccccc1 (centres undefined) | 6.33 |
| N/C(=N\C(=O)CC(c1ccccc1)c1ccccc1)NCCCc1cn[nH]c1 | 6.44 |
| CC(CC(=O)/N=C(\N)NCCCc1ccccn1)c1ccccc1 (centres undefined) | 6.71 |

###

- targetOrSystem: Histamine H3 receptor (Homo sapiens)
- assayRemarks: Intrinsic activity at human recombinant histamine H3 receptor expressed in Sf9 cells coexpressing Galphai2,Gbeta1gamma2 and RGS4 preincubated for 2 mins before [gamma32P]GTP addition measured after 20 mins by steady-state GTPase activity assay relative to histamine

| compound | Intrinsic activity |
| --- | --- |
| N/C(=N\C(=O)CC(c1ccccc1)c1nccs1)NCCCc1ncc[nH]1 (stereo not given) | -0.46 |
| CN(C)Cc1ccc(CCCN/C(N)=N/C(=O)CC(c2ccccc2)c2ccccc2)o1 | -0.65 |
| CC(CC(=O)/N=C(\N)NCCCc1ncc[nH]1)c1cccs1 (stereo not given) | -0.46 |
| N/C(=N\C(=O)CC(c1ccccc1)c1ccccc1)NCCCc1cn[nH]c1 | -0.02 |
| N/C(=N\C(=O)CC(c1ccccc1)c1ccccc1)NCCCn1ccnc1 | -0.07 |

###

Quick reference for Intrinsic activity among some molecules
- targetOrSystem: Histamine H3 receptor (Homo sapiens, UniProt Q9Y5N1)
- Sequence (Q9Y5N1 whole entry): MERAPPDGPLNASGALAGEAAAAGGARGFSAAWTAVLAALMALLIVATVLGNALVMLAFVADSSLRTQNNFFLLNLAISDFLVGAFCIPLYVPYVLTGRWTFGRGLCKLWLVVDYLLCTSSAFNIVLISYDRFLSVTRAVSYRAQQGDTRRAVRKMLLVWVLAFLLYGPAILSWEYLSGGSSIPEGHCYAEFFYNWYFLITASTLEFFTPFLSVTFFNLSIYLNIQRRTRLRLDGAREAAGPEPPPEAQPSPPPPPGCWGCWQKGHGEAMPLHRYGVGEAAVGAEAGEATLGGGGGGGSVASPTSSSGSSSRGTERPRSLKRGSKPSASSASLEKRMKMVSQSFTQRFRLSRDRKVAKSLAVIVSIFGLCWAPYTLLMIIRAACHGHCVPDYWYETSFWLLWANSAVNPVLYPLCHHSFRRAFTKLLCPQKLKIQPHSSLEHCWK
- assayRemarks: Intrinsic activity at human recombinant histamine H3 receptor expressed in Sf9 cells coexpressing Galphai2,Gbeta1gamma2 and RGS4 preincubated for 2 mins before [gamma32P]GTP addition measured after 20 mins by steady-state GTPase activity assay relative to histamine

| molecule | Intrinsic activity |
| --- | --- |
| CN(C)Cc1ccc(CCCN/C(N)=N/C(=O)CC(c2ccccc2)c2nccs2)o1 (configuration not stated) | -0.62 |
| CC(CC(=O)/N=C(\N)NCCCn1ccnc1)c1ccccc1 (configuration not stated) | -0.05 |
| CC(CC(=O)/N=C(\N)NCCCc1ncn[nH]1)c1ccccc1 (configuration not stated) | -0.03 |
| CC(CC(=O)/N=C(\N)NCCCc1ccncc1)c1ccccc1 (configuration not stated) | -0.07 |
| CC(CC(=O)/N=C(\N)NCCCc1ccc(CN(C)C)o1)c1ccccc1 (configuration not stated) | -0.64 |
| N/C(=N\C(=O)CC(c1ccccc1)c1ccccc1)NCCCc1cccnc1 | -0.14 |
| N/C(=N\C(=O)CC(c1ccccc1)c1ccccc1)NCCCc1ccccn1 | -0.44 |

###

- targetOrSystem: Histamine H3 receptor (Homo sapiens, UniProt Q9Y5N1)
- assayRemarks: Agonist activity at human recombinant histamine H3 receptor expressed in Sf9 cells coexpressing Galphai2,Gbeta1gamma2 and RGS4 assessed as [35S]GTPgammaS binding after 90 mins by liquid scintillation counting
pEC50: −log10 of the molar value.

| sampleSmiles | pEC50 |
| --- | --- |
| CN/C(=N/C#N)NCCCCc1nc[nH]c1C | 5.97 |

###

- targetOrSystem: Histamine H1 receptor (Homo sapiens) (UniProt P35367)
- Sequence (P35367 whole entry): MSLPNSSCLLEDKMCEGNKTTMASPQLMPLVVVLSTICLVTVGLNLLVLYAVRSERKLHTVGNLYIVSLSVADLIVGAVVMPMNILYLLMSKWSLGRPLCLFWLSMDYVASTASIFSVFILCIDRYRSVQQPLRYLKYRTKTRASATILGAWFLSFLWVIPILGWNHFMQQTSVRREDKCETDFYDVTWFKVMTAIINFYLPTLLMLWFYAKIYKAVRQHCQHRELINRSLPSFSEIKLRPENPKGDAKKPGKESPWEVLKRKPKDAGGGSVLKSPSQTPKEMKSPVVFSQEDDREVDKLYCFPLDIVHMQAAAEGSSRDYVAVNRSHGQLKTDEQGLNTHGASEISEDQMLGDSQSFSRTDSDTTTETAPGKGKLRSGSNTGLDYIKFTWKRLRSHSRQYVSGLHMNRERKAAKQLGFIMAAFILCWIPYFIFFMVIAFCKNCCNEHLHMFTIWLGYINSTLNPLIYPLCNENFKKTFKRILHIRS
- assayRemarks: Intrinsic activity at human recombinant histamine H1 receptor expressed in Sf9 cells coexpressing RGS4 preincubated for 2 mins before [gamma32P]GTP addition measured after 20 mins by steady-state GTPase activity assay relative to histamine

| compound | Intrinsic activity |
| --- | --- |
| N#C/N=C(\NCCNc1ccnc(N)n1)NCCSc1ccccc1 | -0.02 |
| CC(CC(=O)/N=C(\N)NCCCc1ccccc1)c1ccccc1 (stereo unspecified) | -0.02 |
| N/C(=N\C(=O)CC(c1ccccc1)c1ccccc1)NCCCc1ccncc1 | 0.08 |
| Cc1nc(CCCN/C(=N\C#N)NCCSc2ccccc2)c[nH]1 | 0.03 |
| N#C/N=C(\NCCCCc1nc(N)n[nH]1)NCCSc1ccccc1 | 0.01 |
| CN/C(=N/C#N)NCCCCc1c[nH]c(C)n1 | 0.01 |
| N/C(=N\C(=O)CC(c1ccccc1)c1ccccc1)NCCCn1ccnc1 | 0.01 |
| CC(CC(=O)/N=C(\N)NCCCc1ccncc1)c1ccccc1 (stereo unspecified) | 0.12 |
| N#C/N=C(/NCCNc1nccc(N)n1)NCCSc1ccccc1 | 0.01 |
| N/C(=N\C(=O)CC(c1ccccc1)c1ccccc1)NCCCc1cccnc1 | 0.06 |
| N#C/N=C(/NCCCNc1ccccn1)NCCSc1ccccc1 | 0.02 |
| CN/C(=N\C#N)NCCCCNc1ccccn1 | 0.03 |
| Cc1[nH]cnc1CCCCN/C(=N\C#N)NCCSc1ccccc1 | -0.03 |
| Cc1nccn1CCCCCN/C(=N\C#N)NCCSc1ccccc1 | 0.03 |
| CN(C)Cc1ccc(CCCN/C(N)=N/C(=O)CC(c2ccccc2)c2ccccc2)o1 | -0.02 |
| CN/C(=N/C#N)NCCCCCn1ccnc1C | -0.01 |
| CN/C(=N/C#N)NCCCCc1nc[nH]c1C | -0.03 |
| CN/C(=N\C#N)NCCCNc1nccc(N)n1 | 0.03 |
| CC(CC(=O)/N=C(\N)NCCCc1ccccn1)c1ccccc1 (stereo unspecified) | 0.21 |
| N/C(=N\C(=O)CC(c1ccccc1)c1ccccc1)NCCCc1ncc[nH]1 | 0.04 |
| CC(CC(=O)/N=C(\N)NCCCc1ncc[nH]1)c1ccccc1 (stereo unspecified) | 0.09 |
| Cc1nc(CCCCN/C(=N\C#N)NCCSc2ccccc2)c[nH]1 | -0.01 |
| N/C(=N\C(=O)CC(c1ccccc1)c1ccccc1)NCCCc1ccccc1 | -0.01 |
| N#C/N=C(\NCCCCc1cnn[nH]1)NCCSc1ccccc1 | -0.02 |
| N#C/N=C(/NCCCCNc1ccccn1)NCCSc1ccccc1 | -0.01 |

###

pKb listing for selected compounds.
- targetOrSystem: Histamine H1 receptor (Homo sapiens) (UniProt P35367)
- assayRemarks: Antagonist activity at human recombinant histamine H1 receptor expressed in Sf9 cells coexpressing RGS4 assessed as inhibition of histamine-induced […] hydrolysis preincubated for 2 mins before [gamma32P]GTP addition measured after 20 mins by steady-state GTPase activity assay
- Format: functional

| compound | pKb |
| --- | --- |
| CN/C(=N/C#N)NCCCCCn1ccnc1C | < 5 |
| CC(CC(=O)/N=C(\N)NCCCc1ccccc1)c1ccccc1 (stereo unspecified) | 5.05 |
| N#C/N=C(\NCCCCc1nc(N)n[nH]1)NCCSc1ccccc1 | < 5 |
| N/C(=N\C(=O)CC(c1ccccc1)c1ccccc1)NCCCc1cccnc1 | 5.04 |
| Cc1nccn1CCCCCN/C(=N\C#N)NCCSc1ccccc1 | < 5 |
